Each recorded value in this set is attributed to paper PMC8173610.

Target: microtubule-associated protein tau (Homo sapiens, UniProt P10636)
Sequence (P10636 1-441 isoform P10636-8): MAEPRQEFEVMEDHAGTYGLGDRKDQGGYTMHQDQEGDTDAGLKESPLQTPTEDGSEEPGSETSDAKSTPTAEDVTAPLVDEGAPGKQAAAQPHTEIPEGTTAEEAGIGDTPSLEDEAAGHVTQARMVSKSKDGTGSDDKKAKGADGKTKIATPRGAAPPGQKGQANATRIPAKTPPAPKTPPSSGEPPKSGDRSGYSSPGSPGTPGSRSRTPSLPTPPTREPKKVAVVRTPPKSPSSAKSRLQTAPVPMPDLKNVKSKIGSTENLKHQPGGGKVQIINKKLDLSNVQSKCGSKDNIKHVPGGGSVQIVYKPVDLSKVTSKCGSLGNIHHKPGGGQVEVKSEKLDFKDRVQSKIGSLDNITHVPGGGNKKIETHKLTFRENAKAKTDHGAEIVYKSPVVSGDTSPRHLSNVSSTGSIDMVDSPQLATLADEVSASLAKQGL
READOUT LABEL: IC50 (µM)
Write the answer as a number in µM, unit excluded.

Challenge: Looking for the measured IC50 of `CCCCCCCCCc1cc2cc(O)c(C)c(O)c2cn1` , can you help?
Response given: 35
